These records show IC50 for Muscarinic acetylcholine receptor M1 (Homo sapiens).
measured attribute: IC50 (µM)

>  <compound structure>
COc1ccc(Cn2cc(C(=O)NCCCCCCCCNc3c4c(nc5ccccc35)CCCC4)c(=O)c3ccccc32)cc1

>  <measured attribute>
IC50

>  <numeric readout>
2.05

$$$$
>  <compound structure>
COc1ccc(Cn2cc(C(=O)NCCCCCCCNc3c4c(nc5ccccc35)CCCC4)c(=O)c3ccccc32)cc1

>  <measured attribute>
IC50

>  <numeric readout>
2.14

$$$$
>  <compound structure>
COc1ccc(Cn2cc(C(=O)NCCNc3c4c(nc5cc(Cl)ccc35)CCCC4)c(=O)c3ccccc32)cc1

>  <measured attribute>
IC50

>  <numeric readout>
4.23

$$$$
>  <compound structure>
COc1ccc(Cn2cc(C(=O)NCCCNc3c4c(nc5cc(Cl)ccc35)CCCC4)c(=O)c3ccccc32)cc1

>  <measured attribute>
IC50

>  <numeric readout>
4.01

$$$$
>  <compound structure>
COc1ccc(Cn2cc(C(=O)NCCCCCCCNc3c4c(nc5cc(Cl)ccc35)CCCC4)c(=O)c3ccccc32)cc1

>  <measured attribute>
IC50

>  <numeric readout>
5.35

$$$$
>  <compound structure>
COc1ccc(Cn2cc(C(=O)NCCCCCNc3c4c(nc5cc(Cl)ccc35)CCCC4)c(=O)c3ccccc32)cc1

>  <measured attribute>
IC50

>  <numeric readout>
3.27

$$$$
>  <compound structure>
COc1ccc(Cn2cc(C(=O)NCCCCCCCNc3c4c(nc5ccc(OC)cc35)CCCC4)c(=O)c3ccccc32)cc1

>  <measured attribute>
IC50

>  <numeric readout>
11.4

$$$$
>  <compound structure>
COc1ccc2nc3c(c(N)c2c1)CCCC3

>  <measured attribute>
IC50

>  <numeric readout>
3.71

$$$$
>  <compound structure>
COc1ccc(Cn2cc(C(=O)NCCCCNc3c4c(nc5ccccc35)CCCC4)c(=O)c3ccccc32)cc1

>  <measured attribute>
IC50

>  <numeric readout>
1.59

$$$$
>  <compound structure>
COc1ccc(Cn2cc(C(=O)NCCCCCCNc3c4c(nc5cc(Cl)ccc35)CCCC4)c(=O)c3ccccc32)cc1

>  <measured attribute>
IC50

>  <numeric readout>
2.78

$$$$
>  <compound structure>
COc1ccc(Cn2cc(C(=O)NCCCCNc3c4c(nc5ccc(OC)cc35)CCCC4)c(=O)c3ccccc32)cc1

>  <measured attribute>
IC50

>  <numeric readout>
1.07

$$$$
>  <compound structure>
COc1ccc(Cn2cc(C(=O)NCCNc3c4c(nc5ccccc35)CCCC4)c(=O)c3ccccc32)cc1

>  <measured attribute>
IC50

>  <numeric readout>
0.658

$$$$
>  <compound structure>
COc1ccc(Cn2cc(C(=O)NCCCNc3c4c(nc5ccc(OC)cc35)CCCC4)c(=O)c3ccccc32)cc1

>  <measured attribute>
IC50

>  <numeric readout>
2.48

$$$$
>  <compound structure>
COc1ccc(Cn2cc(C(=O)NCCCCCCNc3c4c(nc5ccccc35)CCCC4)c(=O)c3ccccc32)cc1

>  <measured attribute>
IC50

>  <numeric readout>
1.49

$$$$
>  <compound structure>
COc1ccc(Cn2cc(C(=O)NCCCCCCCCNc3c4c(nc5ccc(OC)cc35)CCCC4)c(=O)c3ccccc32)cc1

>  <measured attribute>
IC50

>  <numeric readout>
7.86

$$$$

* * *

- target or system: Acetylcholinesterase (Homo sapiens, UniProt P22303)
- Sequence (P22303 whole entry): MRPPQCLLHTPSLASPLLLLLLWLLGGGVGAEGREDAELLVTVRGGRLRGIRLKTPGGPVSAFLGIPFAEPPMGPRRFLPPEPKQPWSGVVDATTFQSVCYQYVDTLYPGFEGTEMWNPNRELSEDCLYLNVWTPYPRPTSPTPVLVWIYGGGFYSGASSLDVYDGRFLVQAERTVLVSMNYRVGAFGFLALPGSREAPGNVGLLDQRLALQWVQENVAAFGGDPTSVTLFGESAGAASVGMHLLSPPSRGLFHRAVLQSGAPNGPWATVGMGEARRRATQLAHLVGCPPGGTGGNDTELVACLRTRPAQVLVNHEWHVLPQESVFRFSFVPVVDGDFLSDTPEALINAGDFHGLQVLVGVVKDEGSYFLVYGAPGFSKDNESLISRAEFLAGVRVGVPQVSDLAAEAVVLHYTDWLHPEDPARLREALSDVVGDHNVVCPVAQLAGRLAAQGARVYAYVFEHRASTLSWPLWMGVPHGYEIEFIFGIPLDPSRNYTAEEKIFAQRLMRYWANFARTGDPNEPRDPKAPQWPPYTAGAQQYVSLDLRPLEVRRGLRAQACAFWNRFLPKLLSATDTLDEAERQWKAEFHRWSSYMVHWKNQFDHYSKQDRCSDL
measured attribute: IC50 (nM)

>  <compound structure>
COc1ccc(Cn2cc(C(=O)NCCCCNc3c4c(nc5cc(Cl)ccc35)CCCC4)c(=O)c3ccccc32)cc1

>  <target or system>
Acetylcholinesterase (Homo sapiens, UniProt P22303)

>  <numeric readout>
89.6

$$$$
>  <compound structure>
COc1ccc(Cn2cc(C(=O)NCCCCCCCCNc3c4c(nc5cc(Cl)ccc35)CCCC4)c(=O)c3ccccc32)cc1

>  <target or system>
Acetylcholinesterase (Homo sapiens, UniProt P22303)

>  <numeric readout>
119

$$$$
>  <compound structure>
COc1ccc(Cn2cc(C(=O)NCCCNc3c4c(nc5ccccc35)CCCC4)c(=O)c3ccccc32)cc1

>  <target or system>
Acetylcholinesterase (Homo sapiens, UniProt P22303)

>  <numeric readout>
129

$$$$
>  <compound structure>
COc1ccc(Cn2cc(C(=O)NCCCCCCNc3c4c(nc5cc(Cl)ccc35)CCCC4)c(=O)c3ccccc32)cc1

>  <target or system>
Acetylcholinesterase (Homo sapiens, UniProt P22303)

>  <numeric readout>
94.1

$$$$
